biological target: human MC4R receptor (human, UniProt P32245 1-332); assay: cell-based or functional assay
Sequence (P32245 whole entry): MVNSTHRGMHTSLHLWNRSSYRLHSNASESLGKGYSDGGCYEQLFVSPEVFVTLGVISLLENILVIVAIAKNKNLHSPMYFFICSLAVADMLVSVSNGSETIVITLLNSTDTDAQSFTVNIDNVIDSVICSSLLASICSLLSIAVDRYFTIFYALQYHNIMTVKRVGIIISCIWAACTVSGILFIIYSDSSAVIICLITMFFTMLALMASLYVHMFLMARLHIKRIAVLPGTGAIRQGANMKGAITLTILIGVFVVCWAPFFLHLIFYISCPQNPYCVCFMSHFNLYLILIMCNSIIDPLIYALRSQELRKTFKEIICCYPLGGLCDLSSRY
Starred links: 1 amine or outer side, 2 acyl side, 3 side chain; linkers in the order of their positions; H or OH if unused. Positions of bridges follow the written chain, without caps; N, C: chain ends. Non-standard residues stand in square brackets, D forms with d. dTyr(4-OMe) = O-methyl-D-tyrosine (4-OMe), COc1ccc(C[C@@H](N[*:1])C(=O)[*:2])cc1; 2Nal = N[C@@H](Cc1ccc2ccccc2c1)C(=O)O; 2Pal = N[C@@H](Cc1ccccn1)C(=O)O; Cit = NC(=O)NCCC[C@H](N)C(=O)O; Nle = CCCC[C@H](N)C(=O)O
List of MC4R selectivity vs MC3R values.
Quick one: just the number, no unit, thanks!

INSERT INTO assay_data (binder, reportedresult) VALUES
  ('Ac-CGH[dF]RWC-NH2 (disulfide 1-7; SMILES CC(=O)N[C@H]1CSSC[C@@H](C(N)=O)NC(=O)[C@H](Cc2c[nH]c3ccccc23)NC(=O)[C@H](CCCNC(=N)N)NC(=O)[C@@H](Cc2ccccc2)NC(=O)[C@H](Cc2c[nH]cn2)NC(=O)CNC1=O) [CTX-1206]', 23),
  ('Ac-R[Nle]CR[dTyr(4-OMe)]RFC-NH2 (disulfide 3-8; SMILES CCCC[C@H](NC(=O)[C@H](CCCNC(=N)N)NC(C)=O)C(=O)N[C@H]1CSSC[C@@H](C(N)=O)NC(=O)[C@H](Cc2ccccc2)NC(=O)[C@H](CCCNC(=N)N)NC(=O)[C@@H](Cc2ccc(OC)cc2)NC(=O)[C@H](CCCNC(=N)N)NC1=O) [CTX-1624]', 0.47),
  ('Ac-R[Nle]C[2Pal][dF]RWC-NH2 (disulfide 3-8; SMILES CCCC[C@H](NC(=O)[C@H](CCCNC(=N)N)NC(C)=O)C(=O)N[C@H]1CSSC[C@@H](C(N)=O)NC(=O)[C@H](Cc2c[nH]c3ccccc23)NC(=O)[C@H](CCCNC(=N)N)NC(=O)[C@@H](Cc2ccccc2)NC(=O)[C@H](Cc2ccccn2)NC1=O) [CTX-1619]', 13),
  ('Ac-RCA[Cit][dF]RWC-NH2 (disulfide 2-8) [CTX-1287]', 66);

Input: # input binder: Ac-[Nle]CH[2Nal]R[dW]CRFG-NH2 (disulfide 2-7; SMILES CCCC[C@H](NC(C)=O)C(=O)N[C@H]1CSSC[C@@H](C(=O)N[C@@H](CCCNC(=N)N)C(=O)N[C@@H](Cc2ccccc2)C(=O)NCC(N)=O)NC(=O)[C@@H](Cc2c[nH]c3ccccc23)NC(=O)[C@H](CCCNC(=N)N)NC(=O)[C@H](Cc2ccc3ccccc3c2)NC(=O)[C@H](Cc2c[nH]cn2)NC1=O) [CTX-2128] ; wanted: its MC4R selectivity vs MC3R
Output: 0.01
